The entries below come with measured growth inhibition values attached.
testProtocol: NCI Yeast Anticancer Drug Screen. Data for the rad50 strain (AID 155);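 note: 0% = growth of vehicle-only cultures of the same strain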
conditions: S. cerevisiae rad50 strain growth inhibition; at 50.0 µM; hits give high values
Compounds without any hit were thinned out: in the full panel of roughly 79,000, 15% have a hit.
Field: numeric (%). Do not append units.

COC(=O)/C=C/c1ccc2c(c1)CCCC2	18.1
O=C(c1cccs1)N(C(=S)N1CCN(c2ccccc2)CC1)c1ccccc1	-2.7
O=C(O)C#Cc1cccc(Cl)c1	-20.4

For the molecule COc1cc2oc3c(C)c(=O)cc4oc(-c5ccccc5)cc(c2c2c1CCC(c1ccccc1)O2)c43 (stereo unspecified) , give its reported growth inhibition.
-23.6

Please supply the value of reported growth inhibition for the item CCc1cccc(C(=O)NCCN(C)C)c1[N+](=O)[O-]
-10.4

Quote growth inhibition reported for COC1/C=C/OC2(C)Oc3c(C)c(O)c4c(O)c(c(/C=N/N(C)c5ccc([N+](=O)[O-])cc5[N+](=O)[O-])c(O)c4c3C2=O)NC(=O)C(C)=C/C=C/C(C)C(O)C(C)C(O)C(C)C(OC(C)=O)C1C (stereo unspecified) please.
10.2

Specify measured growth inhibition for CCOC(=O)c1cc(C)nc2c1c(=O)n(-c1ccccc1)c(=O)n2CCCCN1CCN(c2ccccc2)CC1 .
-1.7

Note down growth inhibition recorded for Cc1ccc2c(c1)CN(C)c1ccc(C)cc1CN2C
17.4

Quickly give me recorded growth inhibition for CC(C)CCCC(C)C1CCC2C3CC=C4CCCCC4(C)C3CCC12C (stereo unspecified)
-22.4

Give growth inhibition for O=C1CC2CC(=O)C(S(=O)c3ccccc3)C2C1 (stereo unspecified)
6.25
